# MEASUREMENT_TARGET: human alpha-synuclein monomer (human, UniProt P37840 1-140)
# MEASUREMENT_DESCRIPTION: ELISA, coated human alpha-synuclein
TEST_READOUT: antibody concentration at which ELISA is positive

1. 20H4 (antibody, rat IgG2b, V domains shown, also called clone 20H4; rat 20H4) VH: AVQLVESGGGLVQPKESLKISCAASGFTFSNAAMYWVRQAPGKGLELLARIRTKPNNYATYHADSVKGRFTISRDDSQSMVYLHMGNLKTEDTAMYYCTADMATGDYWGPGVMVTVSS VL: DIQMTQSPPVLSVSVGDRVTLSCKASQNINKNLDWYQQKHGEAPKPLIYSTNNLQTGVPSRFSGSGSGTDYTLTISSLQPEDVATYYCYQYKSAWTFGGGTKLELR :: < 40 ng/mL

Where do the numbers come from? From patent US20230074436A1.
